Test system: MS2 coat protein
Assay: apparent KD of MS2 coat protein; designed switch direction (-1 OFF switch, 1 ON switch): -1; higher = weaker reporter binding
Details: input ligand: FMN 200 uM

| residues | apparent KD of MS2 coat protein (µM) |
| --- | --- |
| CUCCGGCGUGUAGGAUAUGGUUCCGUUUCGGUUCCAGAAGGACAUGAGGAUCACCCAUGUACCUGUCGUCGGUCGUCACCGGGC [salish99_ExNG1_r04_216] (Eterna round: R96, puzzle: Exclusion NG 1) | 0.0124 |
| UUUGUCUGUGUGAGGAUAUACUUGUUUGGGUUUUUGUAGAAGGCACAUGAGGAUCACCCAUGUAUUUUGUUGUG [JR_BME4_Sub017] (Eterna round: R96, puzzle: Brourd's mod of Exclusion 4) | 0.0865 |
| AAUUAACAUCAGGAUAUGACUAGCUUCGGCUAGUCAGAAGGGAUGACAUGAGGAUCACCCAUGUGAUCAAUUAA [E6/2-A1] (Eterna round: R97, puzzle: Exclusion 6) | 0.127 |
| CGUGACUAAGGAUAUACAUGAGGAUCACCCAUGUGAUUCAAGAUUUUCGACUGGAGAGGUAGAAGGUGGAUGCC [Eternabot (L1) Solution 99] (Eterna round: R97, puzzle: Exclusion 3) | 0.0633 |
| UUAAUUCGGAUUCUUGAAAUACAUGAGGAUCACCCAUGUUCACAGGAUAUUGAUUAAGUUAGUAACAAGAAGGGUGUAACAUAA [JR_ExcNG3_Sub035] (Eterna round: R96, puzzle: Exclusion NG 3) | 0.0578 |

====

Test system: MS2 coat protein
Assay: apparent KD of MS2 coat protein; designed switch direction (-1 OFF switch, 1 ON switch): 1; higher = weaker reporter binding
Conditions: input ligand: microRNA oligo, concentration not stated

| residues | target | apparent KD of MS2 coat protein / nM |
| --- | --- | --- |
| UGGUACAUGAGAGGAUAUGGGUAGAUGACAUGAGGAUCACCCAUGUUAAAGUCCGAAAGGACAUCCUAGAAGGCUCAUGUACCU [MOD of JL SSNG1 3.99] (Eterna round: R96, puzzle: Same State NG 2) | MS2 coat protein | 27 |
| UUGAAGAAUUAAGGAUAUCGAGUACAUAUGUUUAACAUGAGGAUCACCCAUGUGGGUUGCGGUAUCGAGAAGGUAAAUUACAAG [JL SSNG2 1.43] (Eterna round: R96, puzzle: Same State NG 2) | MS2 coat protein | 32 |
| AAAUUACUCCGAGGAUAUGCAUGGCUUUGUGCCGCAGAAGGUGGAUCGACGGACAUGAGGAUCACCCAUGUACACUGUCCUAUA [Gerite] (Eterna round: R96, puzzle: Same State NG 1) | MS2 coat protein | 34.7 |

====

apparent KD of MS2 coat protein values for the sequences below.
System: MS2 coat protein
Experiment: apparent KD of MS2 coat protein; designed switch direction (-1 OFF switch, 1 ON switch): -1; higher = weaker reporter binding
Conditions: input ligand: none

| residues | target | apparent KD of MS2 coat protein [nM] |
| --- | --- | --- |
| UAUAAGAUAGGAUAUACAGGCCCGUCUUCAUAUCGAUCCCGACAUGAGGAUCACCCAUGUAGAAGGAUCGUGAG [Mod 21 - Jieux - Exclusion 2] (Eterna round: R97, puzzle: Exclusion 2) | MS2 coat protein | 13.7 |
| UCGACGUCGUCAGGAUAUAGUCUUAAUGUCAUGCUUUUGUUCGUACAUGAGGAUCACCCAUGUGGCUAGAAGGGACUAAAGUUU [JR_ExcNG2_Sub016] (Eterna round: R96, puzzle: Exclusion NG 2) | MS2 coat protein | 26.9 |
| UCAAAGUCAGGAUAUACAUGAGGAUCACCCAUGUAAAAUUUUAAUUUAAUUUGAAGGUGUAGAAGGGACAAACC [Ex3 #33] (Eterna round: R97, puzzle: Exclusion 3) | MS2 coat protein | 31.6 |

====

Tested on: MS2 coat protein
Assay: apparent KD of MS2 coat protein; designed switch direction (-1 OFF switch, 1 ON switch): -1; higher = weaker reporter binding
Conditions: input ligand: none
apparent KD of MS2 coat protein values for the sequences below.
measurement.label: apparent KD of MS2 coat protein (nM)

| residues | measurement.label | reported.value |
| --- | --- | --- |
| GUAACAACUAGAGGAUAUCAGCACGUUUAGUGCUGAGAAGGCUAGAGUUACAUGAGGAUCACCCAUGUCUAGAGAUCAUUAAUU [ENG1/13-A2] (Eterna round: R96, puzzle: Exclusion NG 1) | apparent KD of MS2 coat protein | 83.8 |
| AUGGGUCCUCACGGAGCUACAUGAGGAUCACCCAUGUGUAUUGAGGAUAUCCACUGCCGAGGGCUGGAGAAGGCAGUGUACUGU [Ex NG3 #92] (Eterna round: R96, puzzle: Exclusion NG 3) | apparent KD of MS2 coat protein | 108 |
| GGUUUACAAGGAUAUACAAAGGUCUUGUGAUCUGUGCGAGGACAUGAGGAUCACCCAUGUAGAAGGUGUCUGCU [Eternabot (L2) Solution 77] (Eterna round: R97, puzzle: Exclusion 2) | apparent KD of MS2 coat protein | 114 |
| GCUUAUAGAGGAUAUACAGAUUAUUACAUGAGGAUCACCCAUGUUCUUCAAUGUAUAUAUGUAGAAGGCUAAGGAG [Mat - Exclusion 5 - JL Mod - D11] (Eterna round: R97, puzzle: Exclusion 5) | apparent KD of MS2 coat protein | 63.2 |
| CUGUGCACGCUGCGGUCCUACAUGAGGAUCACCCAUGUGGUCUGGUGGCGUGGGUCACCGGACUUGGCUCGUCUUGA [salish99_S_TOV1_R5_065] (Eterna round: R97, puzzle: Sensor, turn-off variant 1) | apparent KD of MS2 coat protein | 49.3 |

====

Test system: MS2 coat protein
Test: apparent KD of MS2 coat protein, switch OFF state (with FMN for OFF switches, without FMN for ON switches); designed switch direction (-1 OFF switch, 1 ON switch): 1; higher = weaker reporter binding
Conditions: FMN input: 0 or 200 uM; Eterna round: R93 (includes R88 designs)

| residues | target | apparent KD of MS2 coat protein |
| --- | --- | --- |
| AAGAAACAUGAGGAUCACCCAUGUGAUAAUAUGGGAGGAUAUACGAAGACGAAAGACGAAGUAGAAGGCCUAUGAA [Garnet 45] | MS2 coat protein | 83.3 nM |
| AAAAAACAUGAGGAUCACCCAUGUCGAAAGACGUGAGGAUAUGUACAGACUUCGGUCUGUACAGAAGGCACAAAAA [SS1 - 1032] | MS2 coat protein | 208 nM |
| UGUCUACCUGAUGAGGAUAUCCCACAGGCGACAUGAGGAUCACCCAUGUAAAGUAAGCGUAGGCGGGAGAAGGCAUGGCGGAGAC [Larearre] | MS2 coat protein | 30.7 nM |
| AUAAAACAUGAGGAUCACCCAUGUCCGACAAAUCAAGGAUAUGAGAGCCAAACCAGGCUGUUAGAAGGUGAAAGAA [Edorlebere] | MS2 coat protein | 182 nM |

====

apparent KD of K4 kissing-loop reporter values for the sequences below.
Tested on: K4 kissing-loop RNA reporter;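 also: bound reporter read as fluorescence of individual clusters on recovered sequencing chips by microscopy, with normalized cluster intensities fitted with a binding model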
Test: apparent KD of K4 kissing-loop reporter; higher = weaker reporter binding
Conditions: Eterna round: R107; input ligand: theophylline 20 uM
measurement.label: apparent KD of K4 kissing-loop reporter

| residues | measurement.label | reported.value |
| --- | --- | --- |
| GUGGUGGUGGCGGCCGCCACUGAAGAUAAUGAGUGAUGUUCAAGUGAUGUUAAUAAGAACAGUAUCAGGACCGGGCCACCACCAC [Default title] | apparent KD of K4 kissing-loop reporter | 25.4 nM |
| UUUAUUUUCUGAGGAUAUCGUUUUACUGAAGUGAUGUUUCAGUAUUUUCAUAUUAUAUAUAAUUUUCGAGAAGGCAGUAUUAUUA [JR_Nu_SSFMNB_Sub027] | apparent KD of K4 kissing-loop reporter | 72.2 nM |
| CCAUCGCUAUUCGAUACCAGUCAUAAAAUCUUUGGUUAAAUAAAGGAGUGAUGUUCCCAAGACCCUUGGCAGCGAAUAGUGAUGG [Theophylline B K4 7] | apparent KD of K4 kissing-loop reporter | 266 nM |

====

apparent KD of MS2 coat protein values for the sequences below.
Test system: MS2 coat protein
Experiment: apparent KD of MS2 coat protein; designed switch direction (-1 OFF switch, 1 ON switch): 1; higher = weaker reporter binding
Conditions: Eterna round: R95; input ligand: none

| residues | value.units | apparent KD of MS2 coat protein |
| --- | --- | --- |
| AAAAGACAUGAGGAUCACCCAUGUAACGGUCGUCAAGGAUAUGCAUAGGUCCAUUGACCAGCAGAAGGUGAUACCU [Xeanlarace] (puzzle: Same State 1) | nM | 38.3 |
| UACAAUCUAUCUGAGGAUAUCAUGAAUUAUACAUGAGGAUCACCCAUGUGCAGGAAAACUGCAUAUGAGAAGGCAGAUAGAUUGU [salish99_ss2_r3_062] (puzzle: Same State 2) | nM | 183 |
| AUAAAACAUGAGGAUCACCCAUGUCAACAAAGUCGAGGAUAUGGGCAAAUAAAAUAAGAACCAGAAGGCGAUUAAU [salish99_ss1_r3_035] (puzzle: Same State 1) | nM | 99 |
| ACGCAGCUGGGUGAGGAUAUCGGUGGUAAAACAUGAGGAUCACCCAUGUCCGAAGCUCGGACUUCCGAGAAGGCGCCCGGCCGCA [Atbeatve] (puzzle: Same State 2) | nM | 83.1 |
| UAGAGAGGAAGCGAGGAUAUCGUGUUAGGUACAUGAGGAUCACCCAUGUUGUAGGUAGAGGUAGGCGAGAAGGCGCAGGAGAGGG [JR_SS2_Sub093] (puzzle: Same State 2) | nM | 83.8 |
| ACAAGCUUUUUAGGAAGUGAAGGGAGGGAACAUGAGGAUCACCCAUGUAAGUGGAAUGAAGAAGGAGCACGUCUUAU [JR_SHM208A_Sub097] (puzzle: Sensor for hsa-mir-208a) | nM | 43.1 |
| UUUAGUUGCGGGCAGGAUAUGUAUUAAUAUACAUGAGGAUCACCCAUGUGCGGGUAUAACACCCGACAGAAGGGCCAAUCGCGAC [Laonerce - 5] (puzzle: Same State 2) | nM | 389 |
| UAGUACAAGCUUUUUGCUUGUCUUAUUUAACAUGAGGAUCACCCAUGUAAGUUGAAAGUUAGAGAGUGCAGGUUGAA [JR_SHM208A_Sub051] (puzzle: Sensor for hsa-mir-208a) | nM | 17.1 |
| GGAGCCGGCACCGAGGAUAUUCAUAUUAAAACAUGAGGAUCACCCAUGUACCGGAGAACCGGUUGGGAGAAGGCGGAUCGGCUCG [Xeonanis - 24] (puzzle: Same State 2) | nM | 596 |
| AUAAGUUUGAUGCUCGUCUCUCCGUACGGACAUGAGGAUCACCCAUGUAGUCGGGAAGUAGCCCGGCCAGUAUGGCC [Soveerre] (puzzle: Sensor for hsa-mir-208a) | nM | 22.9 |
| GAGGGACAUGAGGAUCACCCAUGUGGAAAAUUUAAAGGAUAUUAGUGUGGGAAAGUAGGGUAAGAAGGUUGAUUGG [JR_SS1_Sub085] (puzzle: Same State 1) | nM | 91.3 |
